# test: In vivo pharmacokinetics in mice
# condition-description: male, Balb/c, mouse, plasma, po, 20 mg/kg
readout-kind: Tmax (h)
All answers are understood in h, so give the number only.

Task: Fill in: Tmax of CC1(C)NC(=O)Cn2c1nc(-c1ccc(F)cc1)c2Nc1ccc(Cl)c(F)c1 is ___
Result: 1

###

# test: Rat snapshot PK
# Format: in vivo
# condition-description: Wistar, rat, plasma, po, 20 mg/kg
readout-kind: AUC(0-t) (µM·h)
All answers are understood in µM·h, so give the number only.

Task: Fill in: AUC(0-t) of CC1(C)NC(=O)Cn2c1nc(-c1ccc(F)cc1)c2Nc1ccc(Cl)c(F)c1 is ___
Result: 2.1

###

# test: Rat snapshot PK
# Type: in vivo
# condition-description: Wistar, rat, plasma, po, 20 mg/kg
readout-kind: Cmax (nM)
All answers are understood in nM, so give the number only.

Task: Fill in: Cmax of CC1(C)NC(=O)Cn2c1nc(-c1ccc(F)cc1)c2Nc1ccc(Cl)c(F)c1 is ___
Result: 504

###

I'd be grateful if you could share measured Caco-2 A–B for these entries.
# Tested on: Caco-2
# test: Caco-2 permeability assay
# Assay type: in vitro ADME
# condition-description: apical to basolateral
All answers are understood in cm/s ×10^6, so give the number only.

Task: Fill in: Caco-2 A–B of Cc1ccc(Nc2c(-c3ccc(F)cc3)nc3n2CC(=O)NC3)cc1 is ___
Result: 15

Task: Now the same for Cc1ccc(Nc2c(-c3ccc(F)cc3)nc3n2CCNC3)cc1
Result: 8.2

Task: Now the same for CC1(C)c2nc(-c3ccc(F)cc3)c(Nc3ccc(F)c(F)c3)n2CCN1C(=O)CN
Result: 0.61

Task: Now the same for Cc1ccc(Nc2c(-c3ccc(F)cc3)nc3n2CCN(C(=O)C(C)(C)N)C3(C)C)cc1
Result: 3.5

###

# Test system: Caco-2
# test: Caco-2 permeability assay
# Type: in vitro ADME
# condition-description: apical to basolateral
I'd be grateful if you could share measured Caco-2 A–B for these entries.
All answers are understood in cm/s ×10^6, so give the number only.

Task: Fill in: Caco-2 A–B of CC1(C)c2nc(-c3ccc(F)cc3)c(Nc3ccc(F)cc3)n2CCN1C(=O)CN is ___
Result: 1.26

Task: Now the same for CC(C)(N)C(=O)N1CCn2c(nc(-c3ccc(F)cc3)c2Nc2ccc(F)cc2)C1(C)C
Result: 1.2

Task: Now the same for Cc1ccc(Nc2c(-c3ccc(F)cc3)nc3n2CCNC3(C)C)cc1
Result: 15.56

###

# test: In vivo pharmacokinetics in mice
# condition-description: male, Balb/c, mouse, plasma, po, 20 mg/kg
readout-kind: AUC(0-t) (µM·h)
All answers are understood in µM·h, so give the number only.

Task: Fill in: AUC(0-t) of CC1(C)NC(=O)Cn2c1nc(-c1ccc(F)cc1)c2Nc1ccc(Cl)c(F)c1 is ___
Result: 50.6

###

# test: Caco-2 permeability assay
# Format: in vitro ADME
# condition-description: human, Caco-2
readout-kind: Papp B→A (×10⁻⁶ cm/s)
All answers are understood in ×10⁻⁶ cm/s, so give the number only.

Task: Fill in: Papp B→A of NCC(=O)N1CCn2c(nc(-c3ccc(F)cc3)c2Nc2ccc(F)cc2)C1 is ___
Result: 2.55

Task: Now the same for CC1(C)NC(=O)Cn2c1nc(-c1ccc(F)cc1)c2Nc1ccc(Cl)c(F)c1
Result: 3.35

Task: Now the same for CC(C)(N)C(=O)N1CCn2c(nc(-c3ccc(F)cc3)c2Nc2ccc(F)cc2)C1
Result: 8.38

###

# test: In vivo pharmacokinetics in mice
# condition-description: male, Balb/c, mouse, plasma, iv, 5 mg/kg
readout-kind: half-life

Task: Fill in: half-life of CC1(C)NC(=O)Cn2c1nc(-c1ccc(F)cc1)c2Nc1ccc(Cl)c(F)c1 is ___
Result: 2.8 h

###

# test: In vivo pharmacokinetics in mice
# condition-description: male, Balb/c, mouse, plasma, po, 20 mg/kg
readout-kind: half-life (h)
All answers are understood in h, so give the number only.

Task: Fill in: half-life of CC1(C)NC(=O)Cn2c1nc(-c1ccc(F)cc1)c2Nc1ccc(Cl)c(F)c1 is ___
Result: 2.71
